System under test: AFP158 homologous peptides/HLA-A*02:01 complexes
Assay text: SPR, crude scFv captured, complexes as analyte
Readout: SPR response

Here are 2 binders together with their reported answers.
AS170036 VL1VH1-VHG56N (scFv) scFv: QSALTQPRSVSGSPGQSVTISCAGTSSDVGSENYVSWYQQHPGKAPKLMIYQVNKRASGVPDRFSGSKSGNTASLTISGLQAEDEADYYCASYRSSDHNIVFGGGTKLTVLGGGGSGGGGSGGGGSEVQLVESGGGLVQPGGSLRLSCAASGFTFSSYAMSWVRQAPGKGLEWVSTINSGTNSPYYADSVKGRFTISRDNSKNTLYLQMNSLRAEDTAVYYCAKNFFDGSWFLGPPAMDYWGQGTLVTVSSHHHHHH = < 3.5 RU
AS170036 VL1VH1-VLH98I (scFv) scFv: QSALTQPRSVSGSPGQSVTISCAGTSSDVGSENYVSWYQQHPGKAPKLMIYQVNKRASGVPDRFSGSKSGNTASLTISGLQAEDEADYYCASYRSSDINIVFGGGTKLTVLGGGGSGGGGSGGGGSEVQLVESGGGLVQPGGSLRLSCAASGFTFSSYAMSWVRQAPGKGLEWVSTINSGTGSPYYADSVKGRFTISRDNSKNTLYLQMNSLRAEDTAVYYCAKNFFDGSWFLGPPAMDYWGQGTLVTVSSHHHHHH = < 3.5 RU

Problem: Entry under review: AS170036 VL1VH1-VHG108D (scFv) scFv: QSALTQPRSVSGSPGQSVTISCAGTSSDVGSENYVSWYQQHPGKAPKLMIYQVNKRASGVPDRFSGSKSGNTASLTISGLQAEDEADYYCASYRSSDHNIVFGGGTKLTVLGGGGSGGGGSGGGGSEVQLVESGGGLVQPGGSLRLSCAASGFTFSSYAMSWVRQAPGKGLEWVSTINSGTGSPYYADSVKGRFTISRDNSKNTLYLQMNSLRAEDTAVYYCAKNFFDGSWFLDPPAMDYWGQGTLVTVSSHHHHHH . Reported SPR response?
Result: < 3.5 RU
